We begin with a simple list: items and their reported pEC50.
target: Bromodomain-containing protein 4 (Homo sapiens, UniProt O60885); assay: Inhibition of BRD4 in human […] cells transfected with HPV-E2 assessed as transrepression of HPV-long control region by luciferase reporter assay
Reminder that pEC50 is minus the log10 of a molar concentration.

- SMILES_ENTRY: "Cc1sc2c(c1C)C(c1ccc(Cl)cc1)=N[C@@H](CC(=O)NCCOCCOCCN)c1nnc(C)n1-2"
  SYSTEM: "Bromodomain-containing protein 4 (Homo sapiens, UniProt O60885)"
  RECORDED_METRIC: "pEC50"
  MEAS_VALUE: 5.07

What the record says about "Cc1sc2c(c1C)C(c1ccc(Cl)cc1)=N[C@@H](CC(=O)NCCOCCOCCNC(=O)OC(C)(C)C)c1nnc(C)n1-2" : pEC50 is 6.14

====

molecular target: Bromodomain-containing protein 2 (Homo sapiens, UniProt P25440); test: Inhibition of BRD2 (unknown origin) by TR-FRET assay
Sequence (P25440 whole entry): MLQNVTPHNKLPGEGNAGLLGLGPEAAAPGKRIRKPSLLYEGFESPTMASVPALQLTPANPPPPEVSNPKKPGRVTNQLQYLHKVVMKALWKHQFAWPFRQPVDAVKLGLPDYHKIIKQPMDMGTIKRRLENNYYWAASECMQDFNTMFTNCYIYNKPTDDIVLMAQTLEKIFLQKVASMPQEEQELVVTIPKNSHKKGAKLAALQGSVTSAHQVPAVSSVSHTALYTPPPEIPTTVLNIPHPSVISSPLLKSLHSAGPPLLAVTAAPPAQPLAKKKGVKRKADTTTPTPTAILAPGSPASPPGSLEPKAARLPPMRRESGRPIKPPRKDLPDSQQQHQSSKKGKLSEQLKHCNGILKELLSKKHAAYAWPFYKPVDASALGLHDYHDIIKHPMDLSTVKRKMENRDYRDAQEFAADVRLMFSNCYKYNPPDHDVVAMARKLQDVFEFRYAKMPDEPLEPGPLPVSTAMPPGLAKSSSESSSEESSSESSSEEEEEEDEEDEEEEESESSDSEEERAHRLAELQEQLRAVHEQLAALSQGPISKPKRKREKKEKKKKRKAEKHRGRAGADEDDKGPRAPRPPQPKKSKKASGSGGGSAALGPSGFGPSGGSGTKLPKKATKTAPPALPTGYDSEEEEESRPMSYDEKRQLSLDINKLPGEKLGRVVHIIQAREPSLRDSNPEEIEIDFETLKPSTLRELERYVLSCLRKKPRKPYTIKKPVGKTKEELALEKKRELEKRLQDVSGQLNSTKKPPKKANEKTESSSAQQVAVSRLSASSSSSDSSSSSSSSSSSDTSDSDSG
We begin with a simple list: items and their reported pIC50.
Reminder that pIC50 is minus the log10 of a molar concentration.

What the record says about "Cc1sc2c(c1C)C(c1ccc(Cl)cc1)=N[C@@H](CC(=O)NCCOCCOCCNC(=O)OC(C)(C)C)c1nnc(C)n1-2" : pIC50 is 7.46

What the record says about Cc1sc2c(c1C)C(c1ccc(Cl)cc1)=N[C@@H](CC(=O)NCCOCCOCCNC(=O)C1C(C(=O)O)C(C(=O)O)C1C(=O)O)c1nnc(C)n1-2 (stereo not given in full) : pIC50 is 6.00

What the record says about "Cc1sc2c(c1C)C(c1ccc(Cl)cc1)=N[C@@H](CC(=O)NCCOCCOCCN)c1nnc(C)n1-2" : pIC50 is 7.80

What the record says about "Cc1sc2c(c1C)C(c1ccc(Cl)cc1)=N[C@@H](CC(=O)NCCOCCOCCNC(=O)CS(=O)(=O)O)c1nnc(C)n1-2" : pIC50 is 7.11

====

molecular target: Beta-2 adrenergic receptor (Homo sapiens, UniProt P07550); test: Displacement of [3H](-)CGP 12177 from human recombinant beta2 adrenoceptor after 120 mins by scintillation counting method
Sequence (P07550 whole entry): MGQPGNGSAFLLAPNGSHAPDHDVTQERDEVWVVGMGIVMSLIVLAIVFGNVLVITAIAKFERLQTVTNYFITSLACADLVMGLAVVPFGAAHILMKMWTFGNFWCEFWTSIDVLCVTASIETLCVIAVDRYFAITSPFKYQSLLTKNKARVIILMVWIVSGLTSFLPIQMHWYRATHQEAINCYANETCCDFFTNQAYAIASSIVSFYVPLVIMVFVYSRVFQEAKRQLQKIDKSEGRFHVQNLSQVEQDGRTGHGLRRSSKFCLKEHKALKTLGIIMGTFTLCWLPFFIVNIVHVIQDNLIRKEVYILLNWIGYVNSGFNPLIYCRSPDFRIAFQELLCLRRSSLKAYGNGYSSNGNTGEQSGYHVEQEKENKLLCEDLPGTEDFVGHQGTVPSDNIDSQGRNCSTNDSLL
We begin with a simple list: items and their reported pKi.
Reminder that pKi is minus the log10 of a molar concentration.

Past entries and their recorded results:
- COMPOUND: "COC(=O)CSCCCc1ccccc1OCC(O)CNC(C)C (stereo not drawn)"
  MEAS_VALUE: 7.82
- COMPOUND: "C=CCc1ccccc1OCC(O)CNCCOCCOCCOCCOCCNC(=O)OC(C)(C)C (stereo not drawn)"
  MEAS_VALUE: 8.43
- COMPOUND: "C=CCc1ccccc1OCC(O)CNCCOCCOCCOCCOCCN (stereo not drawn)"
  MEAS_VALUE: 7.99
- COMPOUND: "CC(C)NCC(O)COc1ccccc1CCCSCC(=O)NCCOCCOCCNC(=O)C1C(C(=O)O)C(C(=O)O)C1C(=O)O (stereo not drawn)"
  MEAS_VALUE: 7.10
- COMPOUND: "CC(C)NCC(O)COc1ccccc1CCCSCC(=O)NCCOCCOCCN (stereo not drawn)"
  MEAS_VALUE: 8.54
- COMPOUND: "CC(C)NCC(O)COc1ccccc1CCCSCC(=O)NCCOCCOCCNC(=O)CS(=O)(=O)O (stereo not drawn)"
  MEAS_VALUE: 7.79
- COMPOUND: "C=CCc1ccccc1OCC(O)CNCCOCCOCCOCCOCCNC(=O)CCCCCC1(C)C(/C=C/C=C/C=C2/N(CCCS(=O)(=O)O)c3ccc(S(=O)(=O)O)cc3C2(C)C)=[N+](CCCS(=O)(=O)[O-])c2ccc(S(=O)(=O)O)cc21 (stereo not drawn)"
  MEAS_VALUE: 6.26

Moving on to another compound below.
Measured pKi (Beta-2 adrenergic receptor (Homo sapiens, UniProt P07550)), entry C=CCc1ccccc1OCC(O)CNCCOCCOCCOCCOCCNC(=O)CS(=O)(=O)O (stereo not drawn) : 6.12
